target: T1, PD-L1 Protein, Human, Recombinant (His Tag) (human, UniProt Q9NZQ7 19-239)
T1 construct: Bought protein; also called QPP09.1; SinoBiologic 10084-H08H
T1 sequence (Q9NZQ7 19-239 limits assumed): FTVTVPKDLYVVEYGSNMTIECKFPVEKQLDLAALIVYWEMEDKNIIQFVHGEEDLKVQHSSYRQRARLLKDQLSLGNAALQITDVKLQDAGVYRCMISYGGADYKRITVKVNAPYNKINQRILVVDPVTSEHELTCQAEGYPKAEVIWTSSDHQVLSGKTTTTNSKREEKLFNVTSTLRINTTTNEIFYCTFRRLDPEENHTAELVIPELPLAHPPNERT
test_description: SPR Biacore T200, antibody captured, PD-L1 His as analyte, 1:1 binding
quantity: koff (s⁻¹)
# output: bare number, implied unit s⁻¹

QP325 (Fc fusion, Humanization design of QP1166; VHH-Fc; also called 1166-V3; QD325; not shown: human IgG1-FC constant region fused to the C terminal of the VHH) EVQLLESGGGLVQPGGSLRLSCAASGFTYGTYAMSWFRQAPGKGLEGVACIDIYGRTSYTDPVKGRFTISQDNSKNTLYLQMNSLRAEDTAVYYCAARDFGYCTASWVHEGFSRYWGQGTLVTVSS : 0.004

In: koff lookup needed for QP1166 (Fc fusion, Chimeric antibody before humanization; also called QD1166; nanobody QP1166; not shown: Fc part: called chimeric antibody, cloned in vector VH-FC-pQD) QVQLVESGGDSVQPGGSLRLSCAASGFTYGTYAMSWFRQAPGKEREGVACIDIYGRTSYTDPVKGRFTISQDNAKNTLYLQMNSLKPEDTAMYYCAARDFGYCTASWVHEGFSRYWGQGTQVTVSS , thanks.
Out: 0.00255

In: Item under review: QP322 (Fc fusion, Humanization design of QP1162; VHH at the N-terminal of FC; also called 1162-V3; QD322; not shown: human IgG1-FC constant region fused to the C terminal of the VHH) EVQLLESGGGLVQPGGSLRLSCAASGFTYGTYAMSWFRQAPGKGREGVACIDIYGRASYTDPVKGRFTISQDNSKNTLYLQMNSLKAEDTAVYYCAARDFGYCTASWVHEGFSRYWGQGTLVTVSS . Reported koff?
Out: 0.00311

In: Recorded koff of QP1162 (Fc fusion, Chimeric antibody before humanization; also called QD1162; nanobody QP1162; not shown: Fc part: called chimeric antibody, cloned in vector VH-FC-pQD) QVQLVESGGGSVQSGGSLRLSCAASGFTYGTYAMSWFRQAPGKEREGVACIDIYGRASYTDPVKGRFTISQDNAKNTLYLQMNSLKPEDTAMYYCAARDFGYCTASWVHEGFSRYWGQGTQVTVSS , please.
Out: 0.00379
